Test system: SK-OV-3
Test: Cytotoxicity against human SKOV3 cells
Format: functional, cell-based
Recorded pIC50 by entry
Scale for pIC50: -log10 of concentration given in mol/L; no unit attached.

structure_smiles=COc1ccc(/C=C(NC=O)/C(=C/c2ccc(OC)cc2)NC=O)cc1 recorded_number=6.08

Query :: Find the measured pIC50: item COc1ccc(/C=C(NC=O)/C(=C/c2ccc(O)cc2)NC=O)cc1 , target or system SK-OV-3.
Result :: 5.67

----------
Test system: Malme-3M
Assay: Cytotoxicity against human MALME-3M cells
Assay type: functional, cell-based
readout-type: IC50

structure_smiles=COc1ccc(/C=C(NC=O)/C(=C/c2ccc(O)cc2)NC=O)cc1 readout_type=IC50 result="> 2.5 µM"

Lab note: next molecule to report on.
Query :: Field request: IC50 | item: COc1ccc(/C=C(NC=O)/C(=C/c2ccc(OC)cc2)NC=O)cc1
Result :: 0.65 µM

----------
System: ACHN
Experiment: Cytotoxicity against human ACHN cells
Assay type: functional, cell-based
readout-type: pIC50
Scale for pIC50: -log10 of concentration given in mol/L; no unit attached.

Query :: Field request: pIC50 | item: COc1ccc(/C=C(NC=O)/C(=C/c2ccc(O)cc2)NC=O)cc1
Result :: 5.86
